The measured values listed here are drawn from ChEMBL document CHEMBL1961873.

biological target: Tyrosine-protein kinase ABL1 (Homo sapiens) (UniProt P00519); settings: at 1 µM
Sequence (P00519 whole entry): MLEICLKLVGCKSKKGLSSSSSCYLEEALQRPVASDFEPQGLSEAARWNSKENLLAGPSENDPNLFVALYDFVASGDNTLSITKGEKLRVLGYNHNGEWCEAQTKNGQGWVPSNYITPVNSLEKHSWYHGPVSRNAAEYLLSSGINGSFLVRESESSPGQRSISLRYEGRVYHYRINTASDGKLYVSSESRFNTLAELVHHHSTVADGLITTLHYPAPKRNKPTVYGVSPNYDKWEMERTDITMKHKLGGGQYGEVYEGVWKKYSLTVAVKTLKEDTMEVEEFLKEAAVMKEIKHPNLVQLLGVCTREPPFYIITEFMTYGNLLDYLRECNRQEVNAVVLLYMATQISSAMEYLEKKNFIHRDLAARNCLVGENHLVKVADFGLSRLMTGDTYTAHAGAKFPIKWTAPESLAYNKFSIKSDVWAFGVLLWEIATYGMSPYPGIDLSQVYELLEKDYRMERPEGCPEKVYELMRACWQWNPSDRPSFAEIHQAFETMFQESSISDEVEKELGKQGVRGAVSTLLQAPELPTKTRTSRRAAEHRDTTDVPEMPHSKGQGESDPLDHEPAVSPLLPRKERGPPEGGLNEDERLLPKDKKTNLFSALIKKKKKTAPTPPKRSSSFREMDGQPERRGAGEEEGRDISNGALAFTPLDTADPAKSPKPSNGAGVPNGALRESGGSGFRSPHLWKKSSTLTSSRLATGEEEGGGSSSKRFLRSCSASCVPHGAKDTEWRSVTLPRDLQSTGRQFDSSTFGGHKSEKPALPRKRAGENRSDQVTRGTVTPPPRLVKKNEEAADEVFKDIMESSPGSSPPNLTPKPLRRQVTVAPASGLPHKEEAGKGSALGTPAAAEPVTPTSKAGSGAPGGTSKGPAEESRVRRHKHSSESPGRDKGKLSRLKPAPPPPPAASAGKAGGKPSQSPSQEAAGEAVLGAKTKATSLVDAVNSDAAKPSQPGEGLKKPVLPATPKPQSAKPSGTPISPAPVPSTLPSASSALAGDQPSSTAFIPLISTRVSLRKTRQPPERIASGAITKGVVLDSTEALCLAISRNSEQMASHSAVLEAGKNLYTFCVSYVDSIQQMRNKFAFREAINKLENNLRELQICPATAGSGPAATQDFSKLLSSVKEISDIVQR
# if value of inhibition reaches 8%, tag fulfilled; if it stays below, tag not fulfilled

query smiles: CN(C)C(=O)O[C@@H]1CN[C@@H](C#Cc2cc3ncnc(Nc4ccc(OCc5cccc(F)c5)c(Cl)c4)c3s2)C1
system tested: Tyrosine-protein kinase ABL1 (Homo sapiens) (UniProt P00519)
class assignment: not fulfilled
--
query smiles: COc1cc(/C=N/Nc2ncnc3c2cnn3C(C)C)ccc1O
system tested: Tyrosine-protein kinase ABL1 (Homo sapiens) (UniProt P00519)
class assignment: fulfilled
--
query smiles: Oc1cccc(-c2nc(-c3ccccc3)[nH]c2-c2ccncc2)c1
system tested: Tyrosine-protein kinase ABL1 (Homo sapiens) (UniProt P00519)
class assignment: fulfilled
--
query smiles: NC(=O)c1sc(-n2cnc3ccccc32)cc1OCc1ccccc1Br
system tested: Tyrosine-protein kinase ABL1 (Homo sapiens) (UniProt P00519)
class assignment: fulfilled
--
query smiles: CCS(=O)(=O)c1ccc(OC)c(Nc2ncc(-c3cccc(OC)c3)o2)c1
system tested: Tyrosine-protein kinase ABL1 (Homo sapiens) (UniProt P00519)
class assignment: fulfilled
--
query smiles: CN(C)C(=O)O[C@H]1CN[C@H](C#Cc2cc3ncnc(Nc4ccc(OCc5cccc(F)c5)c(Cl)c4)c3s2)C1
system tested: Tyrosine-protein kinase ABL1 (Homo sapiens) (UniProt P00519)
class assignment: fulfilled
--
query smiles: CN(c1ccc(NC(=O)Nc2ccc(OC(F)(F)F)cc2)cc1)c1ccnc(Nc2cccc(S(N)(=O)=O)c2)n1
system tested: Tyrosine-protein kinase ABL1 (Homo sapiens) (UniProt P00519)
class assignment: fulfilled
--
query smiles: Nc1nccc(-c2c(-c3ccc(F)cc3)nn3cc(C(F)(F)F)ccc23)n1
system tested: Tyrosine-protein kinase ABL1 (Homo sapiens) (UniProt P00519);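 also: reported values are mean percent inhibition of ABL1 kinase activity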
class assignment: not fulfilled

---

Below is a list of entries, each paired with its recorded inhibition value.
molecular target: Protein kinase C eta type (Homo sapiens); conditions: at 0.1 µM;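 also: values are the mean percent inhibition of PKC-eta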

molecule: COc1ccc(-c2nn3ncccc3c2-c2ccnc(Nc3cccc(C(F)(F)F)c3)n2)cc1
measurement unit: %
inhibition: 0.87

molecule: CCn1c(-c2nonc2N)nc2ccc(F)cc21
measurement unit: %
inhibition: 6.39

molecule: COc1cc(Nc2nccc(-c3cnn4ncccc34)n2)cc(OC)c1
measurement unit: %
inhibition: 3.16

molecule: Cc1cc(-c2ccccn2)cc(C)c1/C=C/c1cncc(-c2nn[nH]n2)c1
measurement unit: %
inhibition: 2.25

molecule: Nc1nccc(-c2c(-c3ccc(F)cc3)ncn2CCCN2CCOCC2)n1
measurement unit: %
inhibition: 4.26

molecule: c1ccc(Cc2nc3ccc(Nc4ncnc5ccccc45)cc3[nH]2)cc1
measurement unit: %
inhibition: 2.55

molecule: CCCN1CCCC(c2ccc(Nc3nc(Nc4cc(F)ccc4C(N)=O)c4cc[nH]c4n3)c(OC)c2)C1 (configuration not stated)
measurement unit: %
inhibition: 1.86

molecule: OCc1ccc(-c2nc(-c3ccccn3)c(-c3ccc4c(c3)OCO4)[nH]2)cc1
measurement unit: %
inhibition: 3.79

molecule: NS(=O)(=O)c1ccc(-c2cc3ccncc3cc2OCc2ccccc2)cc1
measurement unit: %
inhibition: 4.33

molecule: Nc1ccc(C#Cc2cncnc2Nc2ccc(OCc3cccc(F)c3)c(Cl)c2)cc1
measurement unit: %
inhibition: 4.79

molecule: CN(C)C(=O)O[C@H]1CN[C@H](C#Cc2cc3ncnc(Nc4ccc(OCc5cccc(F)c5)c(Cl)c4)c3s2)C1
measurement unit: %
inhibition: 1.05

molecule: Cc1ccc2c(-c3ccnc(Nc4cccc(C(F)(F)F)c4)n3)c(-c3ccccc3)nn2n1
measurement unit: %
inhibition: 5.12

molecule: CN(C)c1cc2c(Nc3ccc4c(cnn4Cc4ccccc4)c3)ncnc2cn1
measurement unit: %
inhibition: -1.26

molecule: NS(=O)(=O)c1ccc(Nc2cc(-c3cccc(O)c3)n[nH]2)cc1
measurement unit: %
inhibition: 3.19

molecule: COc1cccc(-n2ncc3c(N/N=C/c4ccc(C)cc4)ncnc32)c1
measurement unit: %
inhibition: 5.56

molecule: CN(C)C(=O)O[C@@H]1CN[C@@H](C#Cc2cc3ncnc(Nc4ccc(OCc5cccc(F)c5)c(Cl)c4)c3s2)C1
measurement unit: %
inhibition: 4.86

molecule: Cc1ccc(Nc2ccnc(Nc3cccc(C(N)=O)c3)n2)cc1O
measurement unit: %
inhibition: 6.2

molecule: COC(=O)c1cncc(/C=C/c2c(C)cc(O)cc2C)c1
measurement unit: %
inhibition: 4.57

molecule: C[C@@H](Oc1cc(-n2cnc3ccc(OC[C@@H](O)CO)cc32)sc1C(N)=O)c1ccccc1Cl
measurement unit: %
inhibition: 0.53

molecule: Nc1nccc(-c2c(-c3ccc(F)cc3)nn3cc(C(F)(F)F)ccc23)n1
measurement unit: %
inhibition: -1.68

molecule: Oc1cccc(-c2nc(-c3ccccc3)[nH]c2-c2ccncc2)c1
measurement unit: %
inhibition: 2.41

molecule: [O-][S+]1CCN(Cc2ccc(-c3ccc4ncnc(Nc5ccc(OCc6ccccc6)c(Cl)c5)c4c3)o2)CC1
measurement unit: %
inhibition: 1.86

---

biological target: Serine/threonine-protein kinase 10 (Homo sapiens) (UniProt O94804); details: at 1 µM;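 also: reported value is the mean percent inhibition of LOK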
Sequence (O94804 whole entry, looked up): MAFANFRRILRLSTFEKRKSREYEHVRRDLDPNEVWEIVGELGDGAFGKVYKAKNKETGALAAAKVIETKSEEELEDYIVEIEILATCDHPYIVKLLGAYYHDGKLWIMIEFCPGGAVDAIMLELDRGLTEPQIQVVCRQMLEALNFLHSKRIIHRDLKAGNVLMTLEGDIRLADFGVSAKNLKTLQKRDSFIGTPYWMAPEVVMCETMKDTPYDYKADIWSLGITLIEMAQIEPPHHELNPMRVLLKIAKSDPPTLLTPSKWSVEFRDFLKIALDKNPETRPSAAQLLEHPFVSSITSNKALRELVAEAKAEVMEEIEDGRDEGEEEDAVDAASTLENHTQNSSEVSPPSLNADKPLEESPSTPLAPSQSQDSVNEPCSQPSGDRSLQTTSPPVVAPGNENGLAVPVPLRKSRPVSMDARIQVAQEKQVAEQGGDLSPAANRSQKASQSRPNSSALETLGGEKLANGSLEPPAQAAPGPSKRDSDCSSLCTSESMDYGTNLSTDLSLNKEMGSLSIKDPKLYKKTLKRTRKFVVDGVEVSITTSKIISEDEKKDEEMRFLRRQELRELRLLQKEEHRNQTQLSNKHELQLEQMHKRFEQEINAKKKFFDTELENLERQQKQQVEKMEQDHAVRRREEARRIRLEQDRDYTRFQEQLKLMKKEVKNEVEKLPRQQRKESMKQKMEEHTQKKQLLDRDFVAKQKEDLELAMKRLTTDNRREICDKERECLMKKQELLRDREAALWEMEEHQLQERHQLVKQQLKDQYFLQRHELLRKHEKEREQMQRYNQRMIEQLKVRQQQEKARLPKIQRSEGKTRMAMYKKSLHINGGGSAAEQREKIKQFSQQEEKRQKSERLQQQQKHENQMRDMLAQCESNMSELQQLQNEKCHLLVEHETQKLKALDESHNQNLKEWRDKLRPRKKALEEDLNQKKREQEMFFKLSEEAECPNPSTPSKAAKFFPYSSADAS
We use 10% as the dividing line for inhibition: on or above the line is rule met, below is rule not met.

query smiles: C[C@@H](Oc1cc(-n2cnc3ccc(OCC4CCN(C)CC4)cc32)sc1C(N)=O)c1ccccc1C(F)(F)F
class assignment: rule met
--
query smiles: CN1CCN(C(=O)c2ccc(NC(=O)Nc3ccc(N(C)c4ccnc(Nc5ccc(CS(C)(=O)=O)cc5)n4)cc3)cc2)CC1
class assignment: rule met
--
query smiles: COc1cc2ncnc(Nc3ccc(C)c(O)c3)c2cc1OC
class assignment: rule met
--
query smiles: CCS(=O)(=O)c1ccc(OC)c(Nc2nccc(N(C)c3ccc4c(C)n[nH]c4c3)n2)c1
class assignment: rule met
--
query smiles: Nc1nccc(-c2c(-c3ccc(F)cc3)ncn2CCCN2CCOCC2)n1
class assignment: rule not met
--
query smiles: Cc1ccc2c(c1)/C(=N/Nc1ccc(S(N)(=O)=O)cc1)C(=O)N2
class assignment: rule not met
--
query smiles: COc1cccc(-n2ncc3c(N/N=C/c4ccc(C)cc4)ncnc32)c1
class assignment: rule met
--
query smiles: CN(C)C(=O)O[C@@H]1CN[C@@H](C#Cc2cc3ncnc(Nc4ccc(OCc5cccc(F)c5)c(Cl)c4)c3s2)C1
class assignment: rule not met
--
query smiles: Cc1ccc(Nc2ccnc(Nc3cccc(C(N)=O)c3)n2)cc1O
class assignment: rule met
--
query smiles: O=C1Nc2ccccc2/C1=C/Nc1ccc2[nH]c(=O)[nH]c2c1
class assignment: rule met
--
query smiles: Nc1nccc(-c2c(-c3ccc(F)cc3)nn3cc(C(F)(F)F)ccc23)n1
class assignment: rule not met
--
query smiles: COc1cccc(-n2ncc3c(N/N=C/c4ccc(S(C)(=O)=O)cc4)ncnc32)c1
class assignment: rule met
--
query smiles: Oc1cccc(-c2nc(-c3ccccc3)[nH]c2-c2ccncc2)c1
class assignment: rule met
--
query smiles: CC(C)c1ccc2c(c1)NC(=O)/C2=N/Nc1ccc(S(N)(=O)=O)cc1
class assignment: rule not met
--
query smiles: CCS(=O)(=O)c1ccc(OC)c(Nc2ncc(-c3cccc(OC)c3)o2)c1
class assignment: rule not met
--
query smiles: c1ccc(Nc2ncc(-c3ccccc3)o2)cc1
class assignment: rule not met
--
query smiles: COc1cccc(-n2nc(C)c3c(N/N=C(\C)c4ccncc4)ncnc32)c1
class assignment: rule not met
--
query smiles: COC(=O)c1ccc2c(c1)C(=Cc1cc(Br)c(O)c(Br)c1)C(=O)N2
class assignment: rule met
--
query smiles: Cc1ccc2c(-c3ccnc(Nc4ccc5c(c4)OCCO5)n3)c(-c3ccc(C(F)(F)F)cc3)nn2n1
class assignment: rule not met
--
query smiles: Cc1ccc(C(=O)NC2CC2)cc1-c1ccc2[nH]ncc2c1
class assignment: rule not met
--
query smiles: CN(C)CCCn1c(-c2nonc2N)nc2cnccc21
class assignment: rule not met
--
query smiles: ON=C1CCc2cc(-c3nc(C4CCNCC4)[nH]c3-c3ccncc3)ccc21
class assignment: rule met
--
query smiles: COC(=O)c1cncc(/C=C/c2c(C)cc(O)cc2C)c1
class assignment: rule met
--
query smiles: Cc1ccc(O)cc1Nc1ccnc2ccc(S(C)(=O)=O)cc12
class assignment: rule met
--
query smiles: COc1ccc(-c2nn3ncccc3c2-c2ccnc(Nc3cccc(C(F)(F)F)c3)n2)cc1
class assignment: rule met
--
query smiles: O=C(Nc1ccc(Oc2ccc3[nH]c(NC(=O)c4ccco4)nc3c2)cc1)Nc1cc(C(F)(F)F)ccc1F
class assignment: rule met
--
query smiles: COc1cc(Nc2nccc(-c3cnn4ncccc34)n2)cc(OC)c1
class assignment: rule met
--
query smiles: Cc1ccc(NC(=O)CC2CC2)cc1-c1ccc(C(=O)NCC2CC2)cc1
class assignment: rule not met
--
query smiles: Nc1nccc(C#Cc2cncnc2Nc2ccc(OCc3cccc(F)c3)c(Cl)c2)n1
class assignment: rule met
--
query smiles: COc1cc(/C=N/Nc2ncnc3c2cnn3C(C)C)ccc1O
class assignment: rule met
--
query smiles: Cc1cc(-c2ccccn2)cc(C)c1/C=C/c1cncc(-c2nn[nH]n2)c1
class assignment: rule met
--
query smiles: Cc1nc(-c2ccccc2)n2nc(NCCCN3CCOCC3)ncc12
class assignment: rule not met
--
query smiles: COc1cc2ncnc(Nc3ccc4c(cnn4Cc4ccccc4)c3)c2cc1OC
class assignment: rule met
--
query smiles: CN(C)C(=O)O[C@H]1CN[C@H](C#Cc2cc3ncnc(Nc4ccc(OCc5cccc(F)c5)c(Cl)c4)c3s2)C1
class assignment: rule not met
--
query smiles: Nc1ccc(C#Cc2cncnc2Nc2ccc(OCc3cccc(F)c3)c(Cl)c2)cc1
class assignment: rule not met
--
query smiles: NS(=O)(=O)c1ccc(NC=C2C(=O)Nc3ccc4ncsc4c32)cc1
class assignment: rule met
--
query smiles: CN(c1ccc(NC(=O)Nc2ccc(OC(F)(F)F)cc2)cc1)c1ccnc(Nc2cccc(S(N)(=O)=O)c2)n1
class assignment: rule met
--
query smiles: [O-][S+]1CCN(Cc2ccc(-c3ccc4ncnc(Nc5ccc(OCc6ccccc6)c(Cl)c5)c4c3)o2)CC1
class assignment: rule met
--
query smiles: CCn1c(-c2nonc2N)nc2ccc(F)cc21
class assignment: rule met
--
query smiles: CC(C)c1ccc(Nc2nccc(-c3cnn4ncccc34)n2)cc1
class assignment: rule not met
